Assay: isobaric coefficient of expansion
Settings: 308.15 K; 10000 kPa; Liquid; DSC
Reported isobaric coefficient of expansion values for the following molecules.

Worked cases, isobaric coefficient of expansion given:
In [3]: df
Out[3]:
       cpd_smiles  endpoint_value
0  CCCCCCCCCCCCCC    0.000884 1/K
1       CCCCCCCCC     0.00103 1/K
2   CCCCCCCCCCCCC     0.00088 1/K
3     CCCCCCCCCCC     0.00095 1/K
4    CCCCCCCCCCCC    0.000924 1/K

**Q:** Given the molecule CCCCCCCCCCCCCCC , what is its reported isobaric coefficient of expansion?
**A:** 0.000873 1/K

**Q:** Given the molecule ClC(Cl)(Cl)Cl , what is its reported isobaric coefficient of expansion?
**A:** 0.00117 1/K

**Q:** Given the molecule CCCCCCCCCC , what is its reported isobaric coefficient of expansion?
**A:** 0.000988 1/K

**Q:** Given the molecule c1ccccc1 , what is its reported isobaric coefficient of expansion?
**A:** 0.00118 1/K

====

Reported isobaric coefficient of expansion values for the following compounds.
Test: isobaric coefficient of expansion
Conditions: 298.15 K; 15000 kPa; Liquid; DSC

Worked cases, isobaric coefficient of expansion given:
>>> df
                        compound  endpoint_value
0             CCCCCCCCC [nonane]    0.000984 1/K
1   CCCCCCCCCCCCCC [tetradecane]     0.00086 1/K
2         CCCCCCCCCCC [undecane]    0.000912 1/K
3             c1ccccc1 [benzene]     0.00114 1/K
4  CCCCCCCCCCCCCCC [pentadecane]    0.000848 1/K
5      CCCCCCCCCCCCC [tridecane]     0.00085 1/K
6        CCCCCCCCCCCC [dodecane]    0.000893 1/K
7            CCCCCCCCCC [decane]    0.000949 1/K

Here is another compound to look at.
**Q:** Given the compound ClC(Cl)(Cl)Cl [tetrachloromethane] , what is its reported isobaric coefficient of expansion?
**A:** 0.00113 1/K

====

Reported isobaric coefficient of expansion values for the following molecules.
Test: isobaric coefficient of expansion
Conditions: 328.15 K; 45000 kPa; Liquid; DSC

**Q:** Given the molecule CCCCCCCCCC , what is its reported isobaric coefficient of expansion?
**A:** 0.000815 1/K

**Q:** Given the molecule CCCCCCCCCCCCC , what is its reported isobaric coefficient of expansion?
**A:** 0.000745 1/K

**Q:** Given the molecule CCCCCCCCCCCC , what is its reported isobaric coefficient of expansion?
**A:** 0.000774 1/K

**Q:** Given the molecule CCCCCCCCCCCCCCC , what is its reported isobaric coefficient of expansion?
**A:** 0.000726 1/K

**Q:** Given the molecule c1ccccc1 , what is its reported isobaric coefficient of expansion?
**A:** 0.000989 1/K

**Q:** Given the molecule CCCCCCCCCCCCCC , what is its reported isobaric coefficient of expansion?
**A:** 0.000735 1/K

**Q:** Given the molecule CCCCCCCCC , what is its reported isobaric coefficient of expansion?
**A:** 0.000843 1/K

**Q:** Given the molecule ClC(Cl)(Cl)Cl , what is its reported isobaric coefficient of expansion?
**A:** 0.000986 1/K

**Q:** Given the molecule CCCCCCCCCCC , what is its reported isobaric coefficient of expansion?
**A:** 0.00079 1/K

====

Test: isobaric coefficient of expansion
Conditions: 308.15 K; 35000 kPa; Liquid; DSC
Reported isobaric coefficient of expansion values for the following compounds.

Worked cases, isobaric coefficient of expansion given:
>>> print(df.to_string())
        cpd_smiles  endpoint_value
0    ClC(Cl)(Cl)Cl     0.00103 1/K
1         c1ccccc1     0.00103 1/K
2        CCCCCCCCC    0.000883 1/K
3   CCCCCCCCCCCCCC    0.000777 1/K
4  CCCCCCCCCCCCCCC    0.000767 1/K

Here is another compound to look at.
**Q:** Given the compound CCCCCCCCCCCCC , what is its reported isobaric coefficient of expansion?
**A:** 0.000781 1/K

====

Assay: isobaric coefficient of expansion
Conditions: 298.15 K; 20000 kPa; Liquid; DSC
Reported isobaric coefficient of expansion values for the following molecules.

In [3]: df
Out[3]:
        cpd_smiles  endpoint_value
0  CCCCCCCCCCCCCCC    0.000825 1/K
1       CCCCCCCCCC    0.000918 1/K
2        CCCCCCCCC    0.000955 1/K

**Q:** Given the molecule c1ccccc1 , what is its reported isobaric coefficient of expansion?
**A:** 0.00111 1/K

====

Assay: isobaric coefficient of expansion
Details: 338.15 K; 25000 kPa; Liquid; DSC
Observable: isobaric coefficient of expansion

   cpd_smiles                         observable  endpoint_value
0    c1ccccc1  isobaric coefficient of expansion      0.0011 1/K

**Q:** Given the molecule CCCCCCCCCCCC , what is its reported isobaric coefficient of expansion?
**A:** 0.000863 1/K

**Q:** Given the molecule CCCCCCCCCCCCC , what is its reported isobaric coefficient of expansion?
**A:** 0.000827 1/K

**Q:** Given the molecule CCCCCCCCCCCCCC , what is its reported isobaric coefficient of expansion?
**A:** 0.00081 1/K

**Q:** Given the molecule CCCCCCCCC , what is its reported isobaric coefficient of expansion?
**A:** 0.00096 1/K

**Q:** Given the molecule CCCCCCCCCCCCCCC , what is its reported isobaric coefficient of expansion?
**A:** 0.000798 1/K

**Q:** Given the molecule CCCCCCCCCC , what is its reported isobaric coefficient of expansion?
**A:** 0.000919 1/K

**Q:** Given the molecule CCCCCCCCCCC , what is its reported isobaric coefficient of expansion?
**A:** 0.000888 1/K

**Q:** Given the molecule ClC(Cl)(Cl)Cl , what is its reported isobaric coefficient of expansion?
**A:** 0.00111 1/K

====

Assay: isobaric coefficient of expansion
Details: 298.15 K; 45000 kPa; Liquid; DSC
Reported isobaric coefficient of expansion values for the following compounds.

>>> print(df.to_string())
     cpd_smiles  endpoint_value
0  CCCCCCCCCCCC    0.000775 1/K

**Q:** Given the compound CCCCCCCCCCC , what is its reported isobaric coefficient of expansion?
**A:** 0.00079 1/K

**Q:** Given the compound CCCCCCCCC , what is its reported isobaric coefficient of expansion?
**A:** 0.000839 1/K

**Q:** Given the compound CCCCCCCCCCCCCCC , what is its reported isobaric coefficient of expansion?
**A:** 0.000742 1/K

**Q:** Given the compound CCCCCCCCCCCCC , what is its reported isobaric coefficient of expansion?
**A:** 0.000755 1/K

**Q:** Given the compound CCCCCCCCCC , what is its reported isobaric coefficient of expansion?
**A:** 0.000812 1/K

**Q:** Given the compound c1ccccc1 , what is its reported isobaric coefficient of expansion?
**A:** 0.000988 1/K

**Q:** Given the compound CCCCCCCCCCCCCC , what is its reported isobaric coefficient of expansion?
**A:** 0.00075 1/K

**Q:** Given the compound ClC(Cl)(Cl)Cl , what is its reported isobaric coefficient of expansion?
**A:** 0.000978 1/K

====

Reported isobaric coefficient of expansion values for the following compounds.
Assay: isobaric coefficient of expansion
Settings: 348.15 K; 15000 kPa; Liquid; DSC

Worked cases, isobaric coefficient of expansion given:
In [3]: df
Out[3]:
        cpd_smiles  endpoint_value
0     CCCCCCCCCCCC    0.000921 1/K
1   CCCCCCCCCCCCCC    0.000867 1/K
2  CCCCCCCCCCCCCCC    0.000854 1/K
3       CCCCCCCCCC    0.000992 1/K
4      CCCCCCCCCCC    0.000948 1/K
5         c1ccccc1      0.0012 1/K
6        CCCCCCCCC     0.00104 1/K
7    CCCCCCCCCCCCC    0.000896 1/K

Here is another compound to look at.
**Q:** Given the compound ClC(Cl)(Cl)Cl , what is its reported isobaric coefficient of expansion?
**A:** 0.00121 1/K
